- tested_target: Speckle-type POZ protein (Homo sapiens)
- Sequence (O43791 whole entry): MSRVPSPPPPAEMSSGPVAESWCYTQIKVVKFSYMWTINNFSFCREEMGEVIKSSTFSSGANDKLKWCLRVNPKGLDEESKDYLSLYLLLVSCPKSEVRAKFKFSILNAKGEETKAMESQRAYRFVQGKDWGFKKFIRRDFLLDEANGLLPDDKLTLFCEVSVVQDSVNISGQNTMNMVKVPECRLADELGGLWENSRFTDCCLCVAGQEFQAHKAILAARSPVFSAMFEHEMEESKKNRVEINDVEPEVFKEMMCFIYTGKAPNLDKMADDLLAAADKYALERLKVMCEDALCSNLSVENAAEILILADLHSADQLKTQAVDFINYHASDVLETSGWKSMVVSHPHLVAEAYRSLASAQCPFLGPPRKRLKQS
Provide the reported IC50 of each item.

Consider the reported IC50 for these compounds:
[
  {
    "smiles_data": "Cn1nnnc1SCC1=C(C(=O)O)N2C(=O)[C@@H](NC(=O)c3ccc(COc4ccc(Br)cc4Cl)o3)[C@H]2SC1",
    "measured_result": "34.6 µM"
  },
  {
    "smiles_data": "CC1=C(C(=O)O)N2C(=O)[C@@H](NC(=O)c3ccc(COc4ccc(Br)cc4Cl)o3)[C@H]2SC1",
    "measured_result": "> 100 µM"
  },
  {
    "smiles_data": "C[C@H]1[C@H](NC(=O)c2ccc(COc3ccc(Br)cc3Cl)o2)C(=O)N1S(=O)(=O)O",
    "measured_result": "> 100 µM"
  }
]

Report IC50 for every entry below.
1. COCC1=C(C(=O)O)N2C(=O)[C@@H](NC(=O)c3ccc(COc4ccc(Br)cc4Cl)o3)[C@H]2SC1
2. C=CC1=C(C(=O)O)N2C(=O)[C@@H](NC(=O)c3ccc(CCl)o3)[C@H]2SC1
3. C=CC1=C(C(=O)O)N2C(=O)[C@@H](NC(=O)c3ccc(COc4c(C)cc(Br)cc4Cl)o3)[C@H]2SC1

Resp:
["> 100 µM", "0.58 µM", "> 100 µM"]

For each entry beneath this line, provide reported IC50.
1. CC(=O)OCC1=C(C(=O)O)N2C(=O)[C@@H](NC(=O)c3ccc(COc4ccc(Br)cc4Cl)o3)[C@H]2SC1
2. C=CC1=C(C(=O)O)N2C(=O)[C@@H](NC(=O)c3ccc(CF)o3)[C@H]2SC1

Resp:
1: 12.5 µM; 2: 20.9 µM

----------
Please consider the recorded pIC50 for UniProt:O43791 in what follows.
Answers are plain numbers, as −log10 of the molar value.

[
  {
    "smiles_data": "C=CC1=C(C(=O)O)N2C(=O)[C@@H](NC(=O)c3ccc(COC)o3)[C@H]2SC1",
    "tested_target": "UniProt:O43791",
    "pIC50": 4.58
  },
  {
    "smiles_data": "C=CC1=C(C(=O)O)N2C(=O)[C@@H](NC(=O)c3ccc(C)o3)[C@H]2SC1",
    "tested_target": "UniProt:O43791",
    "pIC50": 4.68
  }
]

Batch: pIC50 for all items listed.
1. C=CC1=C(C(=O)O)N2C(=O)[C@@H](NC(=O)c3ccc(COc4ccc(C#N)cc4Cl)o3)[C@H]2SC1
2. O=C(O)C1=CCS[C@@H]2[C@H](NC(=O)c3ccc(COc4ccc(Br)cc4Cl)o3)C(=O)N12
3. C=CC1=C(C(=O)O)N2C(=O)[C@@H](NC(=O)c3ccc(C(=O)Nc4ccc(Br)cc4Cl)o3)[C@H]2SC1

Resp:
1: 4.93; 2: 4.38; 3: 4.28

----------
- tested_target: Speckle-type POZ protein (Homo sapiens)
property_measured: pKd
One number for each entry, as −log10 of the molar value.

Req: Form field: pKd recorded for `C=CC1=C(C(=O)O)N2C(=O)[C@@H](NC(=O)c3ccc(CCl)o3)[C@H]2SC1` with Speckle-type POZ protein (Homo sapiens) (enter value)
Resp: 5.81

----------
pIC50: −log10 of the molar value.
Listed here: compounds with reported pIC50 for Speckle-type POZ protein (Homo sapiens).

[
  {
    "smiles_data": "C=CC1=C(C(=O)O)N2C(=O)[C@@H](NC(=O)c3ccc(CNc4ccc(Br)cc4Cl)o3)[C@H]2SC1",
    "pIC50": "< 4.00"
  }
]

Dear colleague, could you send me pIC50 for each of the items below? Thanks.
1. C=CC1=C(C(=O)O)N2C(=O)[C@@H](NC(=O)c3ccc(COc4ccc(C#N)cc4)o3)[C@H]2SC1
2. C=CC1=C(C(=O)O)N2C(=O)[C@@H](NC(=O)c3ccc(COc4cccc(Cl)c4)o3)[C@H]2SC1

Resp:
< 4.00
< 4.00
